# maps each entry to its TGI
System: BT-549 breast
Test: NCI tumour cell line growth inhibition, 48 h
measurement_name: TGI (µM)

{"columns": ["compound", "comparison_operator", "quantitative_result"],
 "data": [
  ["Nc1nc(N)nc(CC(=O)O)n1", ">", 100],
  ["Clc1nc2c(C#Cc3ccccc3)ncnc2n1C1CCCCO1 (configuration not stated)", "=", 49.7],
  ["COc1ccccc1NC(=S)N/N=C/c1ccccn1", "=", 77],
  ["Cc1ccc(NC2=N/C(=C/c3ccco3)C(Cl)=N2)cc1", ">", 100],
  ["O=C(N/N=C/c1ccc(Cl)cc1)c1[nH]c2ccc(Cl)cc2c1-c1ccccc1", "=", 3.58],
  ["CCN1CCCn2c(=O)[nH]c3cc(Br)cc1c32", ">", 100],
  ["COc1cc2c(c(OC)c1)C(=O)O[C@H](C)CCCC/C=C/C2", ">", 35.1],
  ["COc1cc2cc(C(=O)N3CC(CCl)c4c3cc(NC(=O)C(C)Nc3c([N+](=O)[O-])cc(C(=O)NCCN(C)C)cc3[N+](=O)[O-])c3ccccc43)[nH]c2c(OC)c1OC (configuration not stated)", "=", 0.649],
  ["C[C@]12CC[C@@H](OC(=O)N(CCCl)N=O)C[C@@H]1CC[C@@H]1[C@@H]2CC[C@]2(C)C(=O)CC[C@@H]12", "=", 33.2],
  ["O=C(O)COc1cc(-c2ccccc2)nc2ccccc12", ">", 100],
  ["NNS(=O)(=O)c1cc(C(=O)O)cc(C(=O)O)c1", ">", 100],
  ["C/C(=C(/c1ccc(O)cc1)c1ccc(Cl)cc1)c1ccccc1", "=", 1.53],
  ["CC12CC=CCC1CCC1C2CCC2(C)C(c3ccc(=O)oc3)CCC12O (configuration not stated)", "=", 0.209],
  ["C[PH+](c1nc2ccccc2nc1[PH+](C)C(C)(C)C)C(C)(C)C.C[PH+](c1nc2ccccc2nc1[PH+](C)C(C)(C)C)C(C)(C)C.[Au+].[Cl-] (configuration not stated)", "=", 0.0961],
  ["CC[C@@]12C=CCN3CC[C@]4(c5cc(NC(=O)COc6cc(OCC(=O)Nc7cc8c(cc7OC)N(C)[C@H]7[C@@](O)(C(=O)OC)[C@H](OC(C)=O)[C@]9(CC)C=CCN%10CC[C@]87[C@@H]%109)cc7oc(-c8ccccc8)cc(=O)c67)c(OC)cc5N(C)[C@@H]4[C@](O)(C(=O)OC)[C@H]1OC(C)=O)[C@H]32", ">", 100],
  ["COC(=O)C(=O)C(C(=O)C(N)=O)c1nc2ccc(C(=O)c3ccccc3)cc2[nH]c1=O (configuration not stated)", ">", 100],
  ["O=C1C(Cl)=C(c2ccc([N+](=O)[O-])cc2)C(=O)c2c(O)cccc21", "=", 4.72],
  ["COc1cc2c(cc1O)CCN(C)[C@H]2Cc1ccc(Oc2c(O)c(OC)cc3c2C[C@H]2c4c(c(OC)c(OC)c(OC)c4-3)CCN2C)cc1", "=", 11.8],
  ["CC1CN=C(c2ccc(CN3CCC(C4CCN(Cc5ccc(C6=NCC(C)N6)cc5)CC4)CC3)cc2)N1 (configuration not stated)", ">", 100],
  ["COC(=O)c1cc(-c2ccc(OC)cc2)[nH]c1N/N=C/c1c(Cl)cccc1Cl", "=", 2.02],
  ["Cc1c(C#N)c(=N)oc2ccccc12", ">", 100],
  ["CCCCCCNC(=O)n1cc(F)c(=O)[nH]c1=O", "=", 24.9],
  ["O=[N+]([O-])c1ccc2nc(/C=C(\\O)c3ccc(Cl)cc3)c(/C=C(\\O)c3ccc(Cl)cc3)nc2c1", ">", 100],
  ["CCN(CC)C1Oc2cc3c(cc2C(c2cc(OC)c(OC)c(OC)c2)C1C)OCO3 (configuration not stated)", ">", 58.4],
  ["COC1(OC)C=CC(=O)C=C1", "=", 14.2],
  ["CC[C@H](Nc1nc(N)nc(C2CC2)c1C#N)c1nc2cccc(NCc3ccc(C(=O)NO)cc3)c2c(=O)n1-c1ccccc1", "=", 7.84],
  ["Cc1nc(Nc2nc3ccccc3[nH]2)nc(Cl)c1CCCl", ">", 100]
]}
